Attribution: the Biogen ADME set (Fang et al. 2023)

Returns: string. Value is yes if measured MDR1-MDCK efflux ratio is below 0.7, and no if it is greater than or equal to it.

{"columns": ["chemical-string", "group-label"],
 "data": [
  ["CC(C)(C)c1ccc(C(=O)Nc2ccc(C(=O)Nc3ccccc3)cc2)cc1", "yes"],
  ["Cc1ccc(CCNc2ccc(C#N)nc2)cn1", "yes"],
  ["O=C(Nc1nc2ccccc2[nH]1)c1ccc(-n2cccc2)cc1", "yes"],
  ["CC(C)N1CCN(CCCSc2ccccn2)CC1", "no"],
  ["COc1cccc(NC(=O)[C@H]2CCCN(S(=O)(=O)c3ccc(C)cc3)C2)c1", "no"],
  ["CCCc1cc(N2CCc3c(nc(C4CC4)n3C)C2)n2ncnc2n1", "no"]
]}

----------
Below, each entry is listed with its recorded aqueous solubility.
Conditions: pH 6.8

{"columns": ["molecule", "aqueous solubility / µg/mL"],
 "data": [
  ["C=CCN(C)CCCCCCOc1ccc(C(=O)c2ccc(Br)cc2)c(F)c1", 21.4],
  ["CCC(Nc1cnn(C)c1)c1ccc2c(c1)OCCO2 (stereo unspecified)", 37.7],
  ["O=C(CN1CCCC(c2cncc(-c3cccc(Cl)c3)n2)C1)N1CCCC1 (stereo unspecified)", 65.8],
  ["CC1(C)CC[C@]2(C(=O)O)CC[C@]3(C)C(C(=O)C=C4[C@@]5(C)C=C(C#N)C(=O)C(C)(C)[C@@H]5CC[C@]43C)C2C1 (stereo partly specified)", 63.5],
  ["Cc1ccc(NC(=O)Cc2c[nH]c3ccccc23)cc1", 5.6],
  ["Cc1ccc(-c2nnc([C@H]3CCN(Cc4cc5ccccc5o4)C3)o2)cc1", 15.9],
  ["CCNC(=O)c1ccc(CS(C)(=O)=O)cc1", 40.9],
  ["CN1CCC(C(=O)N2CCC(c3cc(C(F)(F)F)c4c(n3)CCNC4=O)CC2)CC1", 52.3],
  ["CN(Cc1cccc(C#N)c1)C(=O)CC(C)(C)C", 29.9],
  ["CC(=O)Nc1ccc(Oc2ncnc3scc(-c4ccccc4)c23)cc1", 8.9],
  ["Cc1cc(N(C)C)nc(N(C)Cc2csc(C)n2)n1", 47.4]
]}

----------
endpoint: intrinsic clearance, rat liver microsomes (mL/min/kg)

{"columns": ["compound", "measure-unit", "reported-relation", "observed-value"],
 "data": [
  ["CC(=O)c1ccc2c(c1)CCN(CC1CCC3(CC1)OCCO3)CC2", "mL/min/kg", "=", 229],
  ["CC(C)CCNC(=O)c1ccc2ccccc2n1", "mL/min/kg", "=", 640],
  ["CCN(C)S(=O)(=O)N(C)Cc1cnc2ccccc2c1", "mL/min/kg", "=", 2320],
  ["CC(C)(C)c1cc(NC(=O)c2cccc3cn[nH]c23)[nH]n1", "mL/min/kg", "=", 176],
  ["COCCNc1c(C)c(C)nc2cc(-c3nccn3C)nn12", "mL/min/kg", "=", 79.6],
  ["CCNC(=O)c1cc(C2CC2)nc2c1c(C)nn2-c1ccccn1", "mL/min/kg", "=", 70.7],
  ["Cc1ccc2nc3c(c(C(=O)NCc4cnn(C)c4)c2c1)CCCC3", "mL/min/kg", "=", 74.1],
  ["CC(C)c1nc(/C=C/c2cnn(C)c2)ncc1C(=O)O", "mL/min/kg", "≤", 10.7],
  ["CC(C)C[C@@H](CO)n1cc(-c2ccccc2Cn2cccn2)nn1", "mL/min/kg", "=", 513],
  ["CCCc1cc(-c2nn3c(C4CCCC4)nnc3s2)n(C)n1", "mL/min/kg", "=", 2230],
  ["CN(C)C(=O)COC(=O)Cc1ccc(OC(=O)c2ccc(NC(=N)N)cc2)cc1", "mL/min/kg", "=", 936],
  ["O=C(CCc1cccs1)Nc1ccc(N2CCOCC2)cn1", "mL/min/kg", "=", 49.2],
  ["Cc1ccccc1-c1cc(N)n(Cc2ccccc2)n1", "mL/min/kg", "=", 302],
  ["O=C(NCC1=CCCN(Cc2cc(F)ccc2Cl)C1)c1ccco1", "mL/min/kg", "=", 1640],
  ["NCc1nnc(CCc2ccccc2)o1", "mL/min/kg", "≤", 10.7],
  ["CCOc1cc(N2CCc3nc[nH]c3C2)ncn1", "mL/min/kg", "=", 77.8],
  ["OC[C@@H](c1ccccc1)n1cc(CCc2ccccc2)nn1", "mL/min/kg", "=", 694],
  ["O=C(NCc1cccnc1)c1cnn(-c2ccccc2)c1", "mL/min/kg", "=", 26.3],
  ["CCC(=O)NCc1ccnc(N(C)C)c1", "mL/min/kg", "≤", 10.7],
  ["CN(C)c1nccc(N2CCN(CCCCCF)CC2)n1", "mL/min/kg", "=", 1440],
  ["CC(C)(C)c1cnc(CN2CCC(=O)Nc3cc(F)ccc32)o1", "mL/min/kg", "=", 950],
  ["N#Cc1ccccc1NC(=O)CCc1ccccc1", "mL/min/kg", "=", 456],
  ["COc1ccc(C(=O)N2CCCC2)cc1NC(C)C", "mL/min/kg", "=", 86.8],
  ["C/N=C(\\NC#N)NCCSCc1nc[nH]c1C", "mL/min/kg", "≤", 10.7],
  ["CC(C)(C)NC(=O)Cn1nc(C(c2ccccc2)c2ccccc2)oc1=O", "mL/min/kg", "=", 747],
  ["OC[C@H](Nc1cncc(-c2ccc3[nH]ncc3n2)c1)c1ccccc1", "mL/min/kg", "=", 330],
  ["CCCNS(=O)(=O)Nc1ncnc(OCCOc2ncc(Br)cn2)c1-c1ccc(Br)cc1", "mL/min/kg", "=", 631],
  ["CC(=O)NCC(=O)N1[C@@H]2CC[C@H]1c1ccc(Nc3ncc(C(F)(F)F)c(NC4CCC4)n3)cc12", "mL/min/kg", "=", 90.9],
  ["COc1cc2c(cc1OC)CN(C(=O)C1CCCN(S(=O)(=O)c3ccc(F)cc3)C1)CC2 (stereo not drawn)", "mL/min/kg", "=", 1220],
  ["CN(Cc1ccc(Br)o1)C(=O)CN1CCCC1=O", "mL/min/kg", "=", 16.7],
  ["Cc1nc2cc(C(=O)N3CCc4nc5ccccc5c(=O)n4CC3)ccc2n1C", "mL/min/kg", "=", 24.7],
  ["CCn1ncnc1-c1[nH]cnc1-c1ccccc1", "mL/min/kg", "=", 48],
  ["Cc1cc(C(=O)N2CCN(C(=O)C3CCC3)CC2)c(O)cn1", "mL/min/kg", "≤", 10.7],
  ["O=C(c1ccccc1-n1cccn1)N1CCN(Cc2cccnc2)CC1", "mL/min/kg", "=", 605],
  ["Cc1cccc(C)c1OCC(=O)N(C)C1(C#N)CCC1", "mL/min/kg", "=", 472],
  ["CC(C)(O)CCn1cc2cc(NC(=O)c3cccc(C(F)(F)F)n3)c(C(C)(C)O)cc2n1", "mL/min/kg", "=", 42.6],
  ["Cc1cc(C)c(S(=O)(=O)Nc2ccccc2)c(C)c1", "mL/min/kg", "=", 4160],
  ["O=C(Cc1cccs1)NCc1ccccc1F", "mL/min/kg", "=", 133],
  ["COc1cccc(C)c1C(=O)N(C)Cc1ncc[nH]1", "mL/min/kg", "=", 425],
  ["O=C(CN1CCCN(c2ccc(C(F)(F)F)cn2)CC1)Nc1ccccc1F", "mL/min/kg", "=", 1100],
  ["CON(C)C(=O)CCc1c(C)nn(C)c1C", "mL/min/kg", "=", 28.3],
  ["Clc1ccc2c(c1)CCc1cccnc1C2=C1CCNCC1", "mL/min/kg", "=", 108],
  ["NCCN1CCN(C/C=C/C(=O)N2CCC[C@@H](n3nc(-c4ccc(Oc5ccccc5)cc4)c4c(N)ncnc43)C2)CC1", "mL/min/kg", "=", 49.8],
  ["CCc1cccc(C)c1NC(=O)c1ccc(C)o1", "mL/min/kg", "=", 172],
  ["OCCOc1ccccc1OCc1ncc(Cl)cc1Cl", "mL/min/kg", "=", 319],
  ["c1ccc(C2(CNc3nc4ccccc4o3)CCOCC2)cc1", "mL/min/kg", "=", 3400],
  ["c1ccc(CN2CCn3nccc3C2)cc1", "mL/min/kg", "=", 31],
  ["CCc1[nH]nc(NC2CCN(C(C)C)CC2)c1C", "mL/min/kg", "=", 163]
]}

----------
Below, each entry is listed with its recorded log10 of intrinsic clearance, rat liver microsomes.
endpoint: log10 of intrinsic clearance, rat liver microsomes (log10 of the value in mL/min/kg)

{"columns": ["compound", "observed-value"],
 "data": [
  ["O=C(NC[C@@H]1CCN(c2ccccc2)C1)N1CCc2ccccc2C1", 3.33],
  ["CN1CCC(C(=O)N2CCC(c3cc(C(F)(F)F)c4c(n3)CCNC4=O)CC2)CC1", 1.04],
  ["CC(C)Oc1ccc(C#N)cc1NC1CCN(C)CC1", 2.00],
  ["C=CCN(C)CCCCCCOc1ccc(C(=O)c2ccc(Br)cc2)c(F)c1", 2.51],
  ["O=C(c1ccccn1)N1CCCC(c2cccc(-c3cccc(Cl)c3)n2)C1 (stereo not drawn)", 3.11],
  ["CCCN(C(=O)c1ccc(COC)o1)c1nc2c(s1)CCc1c-2cnn1C", 1.95],
  ["COc1ccc(CN2CCc3nc(-c4cccnc4)nc(O)c3C2)c(C)c1C", 1.71],
  ["Oc1ccc(-c2noc(-c3cccnc3)n2)cc1", 1.90],
  ["CC(C)(O)CCn1cc2cc(NC(=O)c3ccn(C(F)F)n3)c(OCC3COC3)cc2n1", 1.12],
  ["CCCn1ncc2[nH]c(C3CCCCC3)nc21", 1.92],
  ["Cc1ccc2nc3c(c(C(=O)NCc4nnc5n4CCC5)c2c1)CCCC3", 1.46],
  ["NS(=O)(=O)N1CCN(Cc2c(F)cccc2N2CCCC2)CC1", 3.11],
  ["Cc1cc(CCCC(=O)NC[C@H]2CC[C@H](c3ccc(C(N)=O)c(C)n3)CC2)ccc1F", 2.91],
  ["O=C(Nc1ccccc1)Nc1ccc(-c2ccc(C(=O)[C@H]3CCC[C@@H]3C(=O)O)cc2)cc1", 1.38],
  ["CCOC(=O)c1cccnc1SCc1cccnc1", 3.10],
  ["Cc1cc(C(F)(F)F)nc(CCNC(=O)N(C)Cc2c(C)noc2C)n1", 2.76],
  ["O=C(Nc1nc2cccc(-c3ccc(CN4CCS(=O)(=O)CC4)cc3)n2n1)C1CC1", 1.29],
  ["Cc1cccc(NCCN2C(=O)CCC2=O)n1", 1.70],
  ["CC(C)c1nccn1Cc1nc2ccccc2[nH]1", 2.38],
  ["CC(C)c1nccn1-c1cccc([C@@H]2CCCN2C(=O)CCc2ccccc2)n1", 3.03],
  ["Cc1nc(NCc2sccc2C)n(C)n1", 1.33],
  ["COc1cccc(-n2nc(C(=O)O)cc2-c2ccc(C3CCCCC3)c(Cl)c2)c1", 1.51],
  ["O=C(Cn1nc(Cc2ccccc2)c2ccccc2c1=O)NCc1ncc[nH]1", 3.52]
]}
